- System: Escherichia coli TOP10
- protocol-description: shrunken log2 fold change of peptide-encoding DNA abundance (4.5 h post-induction vs induction); higher = less antimicrobial activity (less host growth inhibition)
- stated-conditions: time post-induction: 4.5 h; library: site-saturation at positions 5, 18, 19, 20
Classify by measured shrunken log2 fold change: YES if it is equal to or exceeds -0.02, NO if it is smaller.

1) RRIRNRPPRLPRPRPRPAIQPRP :: NO
2) RRIRSRPPRLPRPRPRPGETPRP :: YES
3) RRIRWRPPRLPRPRPRPHFFPRP :: NO
4) RRIRCRPPRLPRPRPRPINNPRP :: NO
5) RRIRFRPPRLPRPRPRPSSTPRP :: NO
6) RRIRVRPPRLPRPRPRPGTFPRP :: NO
7) RRIRARPPRLPRPRPRPTDDPRP :: YES
8) RRIRARPPRLPRPRPRPPTFPRP :: YES
9) RRIRWRPPRLPRPRPRPYSTPRP :: NO
10) RRIRNRPPRLPRPRPRPEMWPRP :: NO
11) RRIRVRPPRLPRPRPRPYQGPRP :: NO
12) RRIRMRPPRLPRPRPRPQPRPRP :: YES
13) RRIRARPPRLPRPRPRPLWVPRP :: YES
14) RRIRGRPPRLPRPRPRPCWYPRP :: YES
15) RRIRHRPPRLPRPRPRPEDEPRP :: YES
16) RRIRNRPPRLPRPRPRPWLQPRP :: YES
17) RRIRFRPPRLPRPRPRPKFLPRP :: NO
18) RRIRQRPPRLPRPRPRPWCEPRP :: NO
19) RRIRGRPPRLPRPRPRPTADPRP :: YES
20) RRIRYRPPRLPRPRPRPWLNPRP :: NO
21) RRIRCRPPRLPRPRPRPPLVPRP :: YES
22) RRIRWRPPRLPRPRPRPDFWPRP :: YES
23) RRIRCRPPRLPRPRPRPPMVPRP :: NO
24) RRIRVRPPRLPRPRPRPKKVPRP :: NO
25) RRIRTRPPRLPRPRPRPEYDPRP :: NO
26) RRIRGRPPRLPRPRPRPIPFPRP :: YES
27) RRIRFRPPRLPRPRPRPWTIPRP :: NO
28) RRIRERPPRLPRPRPRPHQPPRP :: YES

---

- Tested on: Escherichia coli TOP10;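 also: peptides expressed intracellularly from a pBAD plasmid library in pooled LB shake-flask culture, induced with 0.3% L-arabinose, DNA abundance read by NGS, three biological replicates, DESeq2 with apeglm shrinkage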
- protocol-description: shrunken log2 fold change of peptide-encoding DNA abundance (4.5 h post-induction vs induction); higher = less antimicrobial activity (less host growth inhibition)
- stated-conditions: time post-induction: 4.5 h; library: site-saturation at positions 5, 18, 19, 20
assay-metric: shrunken log2 fold change

1) RRIRHRPPRLPRPRPRPKTWPRP :: -0.0101
2) RRIRDRPPRLPRPRPRPSYMPRP :: -0.111
3) RRIRGRPPRLPRPRPRPTIHPRP :: 0.434
4) RRIRVRPPRLPRPRPRPIHMPRP :: -0.0179
5) RRIRTRPPRLPRPRPRPHDKPRP :: -0.51
6) RRIRYRPPRLPRPRPRPNYIPRP :: -1.2
7) RRIRTRPPRLPRPRPRPWYFPRP :: -0.432
8) RRIRARPPRLPRPRPRPADFPRP :: 0.119
9) RRIRGRPPRLPRPRPRPLWKPRP :: 0.819
10) RRIRWRPPRLPRPRPRPFLWPRP :: 0.0802
11) RRIRYRPPRLPRPRPRPFLPPRP :: -0.557
12) RRIRTRPPRLPRPRPRPGMIPRP :: -0.0261
13) RRIRARPPRLPRPRPRPKFFPRP :: 0.305
14) RRIRKRPPRLPRPRPRPEHDPRP :: 0.169
15) RRIRKRPPRLPRPRPRPHKTPRP :: -0.0618
16) RRIRNRPPRLPRPRPRPYNAPRP :: -1.54
17) RRIRTRPPRLPRPRPRPANVPRP :: -0.0276
